Ref: patent US8394828B2

# Target or test system: human VR1 (Homo sapiens, UniProt Q8NER1)
# Construct: expressed in transfected cells; host or cells: HEK293
# Sequence (Q8NER1 whole entry): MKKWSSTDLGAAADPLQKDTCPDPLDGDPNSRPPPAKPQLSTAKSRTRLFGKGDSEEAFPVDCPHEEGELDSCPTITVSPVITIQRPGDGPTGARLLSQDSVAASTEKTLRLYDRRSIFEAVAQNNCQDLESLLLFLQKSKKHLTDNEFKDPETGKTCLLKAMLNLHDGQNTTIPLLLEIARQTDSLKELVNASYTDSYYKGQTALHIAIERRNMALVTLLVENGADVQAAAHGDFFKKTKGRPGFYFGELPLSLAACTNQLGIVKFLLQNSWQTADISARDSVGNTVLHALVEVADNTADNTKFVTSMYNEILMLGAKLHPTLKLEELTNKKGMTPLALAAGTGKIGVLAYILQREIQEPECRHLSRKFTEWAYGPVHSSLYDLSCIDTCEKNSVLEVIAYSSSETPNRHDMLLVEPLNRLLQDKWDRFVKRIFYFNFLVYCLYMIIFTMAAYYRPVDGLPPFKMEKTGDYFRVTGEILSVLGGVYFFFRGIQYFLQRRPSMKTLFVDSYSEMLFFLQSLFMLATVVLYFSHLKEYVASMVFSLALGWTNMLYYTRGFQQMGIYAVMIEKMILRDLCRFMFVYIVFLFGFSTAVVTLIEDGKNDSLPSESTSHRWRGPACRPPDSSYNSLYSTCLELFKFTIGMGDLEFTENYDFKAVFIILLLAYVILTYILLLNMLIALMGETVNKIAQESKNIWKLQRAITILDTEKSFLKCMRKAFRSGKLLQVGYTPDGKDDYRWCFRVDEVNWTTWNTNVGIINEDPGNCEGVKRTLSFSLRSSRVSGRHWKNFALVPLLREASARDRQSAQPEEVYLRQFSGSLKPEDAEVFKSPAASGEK
# Protocol summary: Human VR1 [3H] RTX binding assay
# Condition parameters: 3H-RTX binding; hVR1; read-out: 3H-RTX binding assay Ki hVR1
Reported Ki maps to class as: c1 = under 50 nM, c2 = from 50 nM up to 200 nM, c3 = 200 nM and over

Please report the category associated with O=C(Nc1cnc2ccccc2c1)c1ccc(N2CC[C@@H]3CCCC[C@@H]3C2)nc1 (relative stereo) , nothing else.
c1

----------
# Target or test system: human VR1 (Homo sapiens)
# Construct: expressed in transfected cells; host or cells: HEK293
# Protocol summary: Human VR1 functional assay (intracellular Ca++, FLIPR, capsaicin challenge)
# Type: cell-based
# Condition parameters: FLIPR functional assay IC50 hVR1 60 min, 60 min
Examples of compounds with documented IC50 follow.

>>> measured_result("O=C(Nc1cnc2ccccc2c1)c1ccc(N2CC3CCCC(C3)C2)cc1")
"127 nM"

For the compound CCCCCn1ccc2cc(C(=O)Nc3cnc4ccccc4c3)ccc21 , what IC50 is on record?
150 nM

Recorded IC50 of CN(Cc1ccccc1)c1ccc(C(=O)Nc2cnc3ccccc3c2)cc1 , please.
370 nM

Returns the measured IC50 for the input compound. Input: CCCCCN(CCCCC)c1cccc(C(=O)Nc2cnc3ccccc3c2)c1
260 nM

Bench note: what IC50 did CCC(C)(C)c1ccc(CCC(=O)Nc2cnc3ccccc3c2)cc1 [Example 14] show?
30 nM

Which IC50 is listed for CCCCCNc1ccc(C(=O)Nc2cnc3ccccc3c2)cn1 ?
8000 nM

Quick one: IC50 of CCC=CCCCN(C)c1ccc(C(=O)Nc2cnc3ccccc3c2)cc1 ?
46 nM

Please give the measured IC50 for this compound: CN(c1ccc(C=CC(=O)Nc2cnc3ccccc3c2)cc1)C1CCCCC1
400 nM

Data request, read-out IC50, for CN(CCc1ccccc1)c1ccc(C(=O)Nc2cnc3ccccc3c2)cc1 [Example 89]
72 nM

----------
Examples of compounds with documented Ki follow.
# Target or test system: human VR1 (Homo sapiens, UniProt Q8NER1)
# Construct: expressed in transfected cells; host or cells: HEK293
# Protocol summary: Human VR1 [3H] RTX binding assay
# Condition parameters: 3H-RTX binding; hVR1; read-out: 3H-RTX binding assay Ki hVR1
Your answer is read as nM, so omit the unit and give the number.

Illustrative cases are given below, each with its answer.
>>> measured_result("CN(c1ccc(C=CC(=O)Nc2cnc3ccccc3c2)cc1)C1CCCCC1")
131
>>> measured_result("CCN(c1ccc(C(=O)Nc2cnc3ccccc3c2)cc1)C1CCCCC1")
12.6
>>> measured_result("O=C(CCc1ccc(CC2CCCCC2)cc1)Nc1cnc2ccccc2c1")
94.1

For the compound CCC=CCCCN(C)c1ccc(C(=O)Nc2cnc3ccccc3c2)cc1 , what Ki is on record?
29.8

What value of measured Ki is listed for CC(C)(C)c1ccc(CC(=O)Nc2cnc3ccccc3c2)cc1 ?
5760

Looking for the measured Ki of CCCN1CCc2cc(C(=O)Nc3cnc4ccccc4c3)ccc21 , can you help?
15.6

----------
# Target or test system: human VR1 (Homo sapiens)
# Construct: expressed in transfected cells; host or cells: HEK293
# Protocol summary: Human VR1 [3H] RTX binding assay
# Condition parameters: 3H-RTX binding; compound at 1 μM
Reported inhibition at 1 µM values are given for each entry in this list.
Form entry: value (%) — number only.

Here are 4 compounds together with their reported answers.
>>> measured_result("CN(c1ccc(C(=O)Nc2cnc3ccccc3c2)cc1)C1CCOCC1")
19
>>> measured_result("CCC=CCCCCCN(C)c1ccc(C(=O)Nc2cnc3ccccc3c2)cc1")
101
>>> measured_result("CCCCCNc1cccc(C(=O)Nc2cnc3ccccc3c2)c1 [3-Pentylamino-N-quinolin-3-yl-benzamide]")
12
>>> measured_result("O=C(Nc1cnc2ccccc2c1)c1ccc(N2CCNCC2)cc1")
1

Kindly review the next compound as well.
# query: inhibition at 1 µM of entry CC(C)=CCC[C@H](C)CCN(C)c1ccc(C(=O)Nc2cnc3ccccc3c2)cc1
105
